tested on: Phaeomoniella chlamydospora; assay: Mycelial growth on solid medium; conditions: sulfate 40 mM in BNM, solid medium pH 4.2, 18 days
measured parameter: inhibition

> print(dat)
                                   molecule                result
1  O=S(=O)([O-])[O-].[K+].[K+] [K2SO4, potassium sulfate]  — (—: no inhibition)
2  O=S(=O)([O-])[O-].[Cu+2] [CuSO4, copper sulfate]       100% inhibition
3  O=S(=O)([O-])[O-].[Mg+2] [MgSO4, magnesium sulfate]  — (—: no inhibition)
4        N.N.O=S(=O)(O)O [ammonium sulfate]  — (—: no inhibition)
